- Test system: CDK9
- Study conditions: concentration: 1 μM, replicates: in singlicate; n = 1
Kindly state %Inh for each of the entries shown.

[ask] Tell me the measured %Inh of Cc1cccc(-c2nc(Nc3ccc4[nH]nnc4c3)c3ccccc3n2)n1 [GW867587] , please.
[reply] 0%

[ask] Tell me the measured %Inh of Cl.O=S(=O)(c1cccc(F)c1)c1ccc(Nc2ncnc3cc(Br)sc23)cc1Cl [GSK306886] , please.
[reply] 6%

[ask] Tell me the measured %Inh of CSc1nn2c(=O)cc(N3CCOCC3)nc2n1Cc1cccc(Cl)c1Cl [GSK2347225] , please.
[reply] 4%

[ask] Tell me the measured %Inh of Nc1nc(-c2ccc3c(N)n[nH]c3c2)cc(N2CCCCC2)n1 [GSK2228768] , please.
[reply] 0%

[ask] Tell me the measured %Inh of CC(C)N1CCC(n2cnc(-c3ccc(F)cc3)c2-c2ccnc(N)n2)CC1 [SB-223132] , please.
[reply] 0%

[ask] Tell me the measured %Inh of Fc1cccc(COc2ccc(Nc3ncnc4sc(-c5ccc[nH]5)cc34)cc2Cl)c1 [GW707818] , please.
[reply] 14%

[ask] Tell me the measured %Inh of C[C@H]1CC[C@@H](C(=O)Nc2ccccc2)CN1c1cc(-c2ccc3c(N)n[nH]c3c2)nc(N)n1 [GSK2283293] , please.
[reply] 0%

[ask] Tell me the measured %Inh of COc1cc2c(Nc3cccc(NC(=O)c4ccccc4)c3)ncnc2cc1OCCCN1CCOCC1 [GSK223810] , please.
[reply] 0%

* * *

- Tested on: ULK1
- Study conditions: concentration: 1 μM, replicates: in singlicate; n = 1
Kindly state %Inh for each of the entries shown.
Could you give me the number in %? Just the number is fine.

[ask] Request body: readout %Inh, system ULK1, query `COC(=O)c1cccc(NC(=O)NCCNc2ccnc(Nc3ccc(F)cc3)n2)c1` . Return the value.
[reply] 0

[ask] Request body: readout %Inh, system ULK1, query `c1ccc(-c2ccc3c(-c4ccnc(Nc5ccc6c(c5)OCCO6)n4)cnn3n2)cc1` . Return the value.
[reply] 15

[ask] Request body: readout %Inh, system ULK1, query `CN1c2ccc(-c3ccc(C(=O)NCCO)cc3)cc2-c2[nH]ncc2S1(=O)=O` . Return the value.
[reply] 0

[ask] Request body: readout %Inh, system ULK1, query `Fc1cccc(COc2ccc(Nc3ncnc4cc[nH]c34)cc2Cl)c1` . Return the value.
[reply] 24

[ask] Request body: readout %Inh, system ULK1, query `Nc1nc(-c2ccccn2)c(-c2ccnc3ccccc23)s1` . Return the value.
[reply] 0

[ask] Request body: readout %Inh, system ULK1, query `Nc1n[nH]c2nnc(-c3ccccc3)cc12` . Return the value.
[reply] 20

[ask] Request body: readout %Inh, system ULK1, query `Nc1nccc2scc(-c3ccc4c(c3)CCN4C(=O)Cc3cc(F)ccc3F)c12` . Return the value.
[reply] 6

[ask] Request body: readout %Inh, system ULK1, query `Oc1ccc2ncnc(Nc3ccc(OCc4ccccc4)cc3)c2c1` . Return the value.
[reply] 14

[ask] Request body: readout %Inh, system ULK1, query `COc1ccc(NC(=O)Nc2ccc(C)c(-c3ccc(C(=O)Nc4ccncc4)cc3)c2)cc1` . Return the value.
[reply] 0

* * *

- Test system: HPK1
- Study conditions: concentration: 1 μM, replicates: in singlicate; n = 1
Test readout: %Inh

[ask] Request body: readout %Inh, system HPK1, query CCC(CC)(CC)n1cnc2c(N)ncnc21 [SKF-97620] . Return the value.
[reply] 0%

[ask] Request body: readout %Inh, system HPK1, query `CN1c2ccc(-c3ccc(C(=O)NCCO)cc3)cc2-c2[nH]ncc2S1(=O)=O` . Return the value.
[reply] 22%

[ask] Request body: readout %Inh, system HPK1, query COc1ccc(NC(=O)c2ccc(-c3cc(-c4nnc(C)o4)ccc3C)cc2)cc1 [GW595885] . Return the value.
[reply] 24%

[ask] Request body: readout %Inh, system HPK1, query CN1CCC(n2cnc(-c3ccc(F)cc3)c2-c2ccnc(NC3CCNCC3)n2)CC1 [SB-229482] . Return the value.
[reply] 27%

[ask] Request body: readout %Inh, system HPK1, query Cl.Fc1ccccc1COc1ccc(Nc2ncnc3ccc(-c4nnc(C(F)(F)F)o4)cc23)cc1Cl [GW424170] . Return the value.
[reply] 20%

* * *

- System: CSNK1A1
- Study conditions: concentration: 1 μM, replicates: in singlicate; n = 1
Kindly state %Inh for each of the entries shown.
// unit must come after the numeric part

[ask] Tell me the measured %Inh of `Cl.c1ccc(Cn2ccc3cc(Nc4ncnc5ccccc45)ccc32)cc1` , please.
[reply] 0%

[ask] Tell me the measured %Inh of `OCCOCCn1ccc2ncnc(Nc3ccc(Oc4cccc(Cl)c4)c(Cl)c3)c21` , please.
[reply] 0%

[ask] Tell me the measured %Inh of `O=C(c1ccc(-c2cc(-c3c[nH]nc3-c3ccccn3)ccn2)cc1)N1CCCC1` , please.
[reply] 59%

[ask] Tell me the measured %Inh of `Cc1cccc(-c2nc(Nc3ccc4[nH]nnc4c3)c3ccccc3n2)n1` , please.
[reply] 0%

[ask] Tell me the measured %Inh of `CSc1nn2c(=O)cc(N3CCOCC3)nc2n1Cc1cccc(Cl)c1Cl` , please.
[reply] 0%

[ask] Tell me the measured %Inh of `O=C(CCO)NCCn1ccc2ncnc(Nc3ccc(Oc4cccc(C(F)(F)F)c4)c(Cl)c3)c21` , please.
[reply] 0%

[ask] Tell me the measured %Inh of CCCc1ccc(S(=O)(=O)NC2CCN(c3ccnc(Nc4ccc(OC)cc4)n3)C2)cc1 (stereo not drawn) , please.
[reply] 0%

[ask] Tell me the measured %Inh of `Cn1ccc2ncnc(Nc3ccc(Oc4cccc(Cl)c4)c(Cl)c3)c21` , please.
[reply] 14%

[ask] Tell me the measured %Inh of `COc1ccc(-c2nc3n(c2-c2ccncc2)CCC3)cc1` , please.
[reply] 0%

[ask] Tell me the measured %Inh of `Fc1ccc(-c2ncn(CCCNCc3ccccc3)c2-c2ccncc2)cc1` , please.
[reply] 90.4%

[ask] Tell me the measured %Inh of `Cn1cc(-c2ccc3c(c2)CCN3C(=O)Cc2cccc(C(F)(F)F)c2)c2c(N)ncnc21` , please.
[reply] 0%

[ask] Tell me the measured %Inh of `Cl.O=S(=O)(c1cccc(F)c1)c1ccc(Nc2ncnc3cc(Br)sc23)cc1Cl` , please.
[reply] 0%

[ask] Tell me the measured %Inh of COc1ccc(Nc2nccc(N3CCC(NC(=O)Nc4ccc5c(c4)OCO5)C3)n2)cc1 (stereo not drawn) , please.
[reply] 0%

[ask] Tell me the measured %Inh of `O=C(Nc1n[nH]c2nc(-c3ccco3)c(Br)cc12)c1ccc(CN2CCCC2)cc1.O=C(O)[C@H](O)[C@@H](O)C(=O)O` , please.
[reply] 0%

[ask] Tell me the measured %Inh of `Nc1n[nH]c2nnc(-c3ccccc3)cc12` , please.
[reply] 0%

* * *

- Tested on: PIM3;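 further: kd values determined as follow-up on hits from a single-replicate KINOMEscan panel screen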
pKd: −log10 of the molar value.
Test readout: pKd

[ask] Tell me the measured pKd of `CNc1nccc(-c2c(-c3ccc(F)cc3)ncn2CCCN2CCOCC2)n1` , please.
[reply] < 5.00

* * *

- Test system: CSNK1E
- Study conditions: concentration: 1 μM, replicates: in singlicate; n = 1
Test readout: %Inh

[ask] Tell me the measured %Inh of COc1ccc(NC(=O)c2ccc(-c3cc(-c4nnc(C)o4)ccc3C)cc2)cc1 [GW595885] , please.
[reply] 0%

[ask] Tell me the measured %Inh of `O=C(Nc1ccccc1)Nc1ccc(Oc2ccc3nccn3n2)cc1` , please.
[reply] 1%

[ask] Tell me the measured %Inh of COc1cc2c(Nc3cccc(NC(=O)c4ccccc4)c3)ncnc2cc1OCCCN1CCOCC1 [GSK223810] , please.
[reply] 54%

[ask] Tell me the measured %Inh of Cn1cc(-c2ccc3c(c2)CCN3C(=O)Cc2cccc(C(F)(F)F)c2)c2c(N)ncnc21 [GSK2606414] , please.
[reply] 0%

[ask] Tell me the measured %Inh of NC(=O)c1sc(-n2cnc3ccccc32)cc1OCc1ccccc1F [GSK1024306] , please.
[reply] 20%

[ask] Tell me the measured %Inh of COc1ccc(Nc2nccc(N3CCC(NC(=O)Nc4ccc5c(c4)OCO5)C3)n2)cc1 (centres unmarked) [GSK1379745] , please.
[reply] 22%

[ask] Tell me the measured %Inh of FC(F)(F)c1ccc(-c2nn3ncccc3c2-c2ccnc(Nc3cccc(C(F)(F)F)c3)n2)cc1 [GW828205] , please.
[reply] 17%

[ask] Tell me the measured %Inh of COc1ccc(NC(=O)Nc2ccc(C)c(-c3ccc(C(=O)Nc4ccncc4)cc3)c2)cc1 [GSK1398475] , please.
[reply] 36%

Numbers sourced from paper PMC5540273.
